- measuredTarget: T1, GLP-1 receptor (endogenous, RINm5F cell membranes; rat thyroid carcinoma 6-23 clone 6 cells) (rat, UniProt P32301 22-463)
- T1 construct: whole, on cells
- T1 sequence (looked up): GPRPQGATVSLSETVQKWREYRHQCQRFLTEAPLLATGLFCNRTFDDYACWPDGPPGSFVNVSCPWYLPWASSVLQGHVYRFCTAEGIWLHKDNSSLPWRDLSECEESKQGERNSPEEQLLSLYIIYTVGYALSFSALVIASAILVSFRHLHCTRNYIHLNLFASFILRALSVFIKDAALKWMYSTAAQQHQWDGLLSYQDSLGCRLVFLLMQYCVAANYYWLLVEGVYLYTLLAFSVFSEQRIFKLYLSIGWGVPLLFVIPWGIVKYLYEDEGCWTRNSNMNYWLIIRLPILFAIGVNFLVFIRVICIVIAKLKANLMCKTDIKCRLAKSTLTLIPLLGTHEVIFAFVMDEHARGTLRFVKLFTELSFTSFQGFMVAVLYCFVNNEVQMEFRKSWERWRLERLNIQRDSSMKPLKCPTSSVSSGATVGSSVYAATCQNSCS
- assayNotes: displacement of [125I]GLP-1 from RINm5F cell membranes (GLP RBA)
quantityName: log10 of IC50 (log10 of the value in nM)
Annotation: log10 of IC50, nM basis.

HADGTYTSDVSSYLQDQAAKDFITWLKSGQPKPDAVETRSVDTL (also called nmGLP-1 peptide; naturally occurring nmGLP-1) [SEQ ID NO 49] : 1.87

## Input Find the recorded log10 of IC50 belonging to HAEGTFTSDVTQQLEEKAAKEFIEWLIKGKPKKIRYS (also called nmGLP-1 analog) [SEQ ID NO 22] and report it.
## Output -1.17

## Input Look up log10 of IC50 for this binder: HAEGTFTSDVTQQLDEKAAKEFIDWLINGGPSKEIIS (also called nmGLP-1 analog) [SEQ ID NO 11]
## Output 0.36

## Input // log10 of IC50 lookup, key: HGEGTYTNDVTQFLEEKAAKEFIDWLIKGKPKKQRLS (also called nmGLP-1 analog) [SEQ ID NO 55]
## Output -1.30

## Input Request the reported log10 of IC50 associated with HADGTFTNDMTSYLDAKAARDFVSWLARSDKS (also called nmGLP-1 peptide; naturally occurring nmGLP-1) [SEQ ID NO 52]
## Output -0.05

## Input Which log10 of IC50 value is on record for HAEGTYTNDVTEYEEKAAKEFIEWLIKGKPKKIRYS (also called nmGLP-1 analog) [SEQ ID NO 38] ?
## Output 1.62

## Input Consider the binder HXEGTYTNDVTEYLEEKAAKEFIEWLIKGKPKKIRYS (Abu (2-Aminobutyric acid) at position 2, also called nmGLP-1 analog) [SEQ ID NO 28] and give its measured log10 of IC50.
## Output -1.17

## Input What log10 of IC50 value was documented for this binder, HAEGTFTSDVTQQLDEKAAKEFIDWLINGGASKEIIS (also called nmGLP-1 analog) [SEQ ID NO 12] ?
## Output 0.94

## Input // lookup log10 of IC50 for HAEGTYTNDVTEYLEEKAAKEFIEWLIK (also called nmGLP-1 analog) [SEQ ID NO 25]
## Output -0.27

## Input Tell me the measured log10 of IC50 of HAEGTYTNDTEYLEEKAAKEFIEWLIKGKPKKIRYS (also called nmGLP-1 analog) [SEQ ID NO 39] , please.
## Output 1.79

## Input So what's the measured log10 of IC50 for this one? HAEGTYTNDVTYLEEKAAKEFIEWLIKGKPKKIRYS (also called nmGLP-1 analog) [SEQ ID NO 41]
## Output 0.95

## Input Query: log10 of IC50; subject: HAEGTYTNDVTEYLEEAAKEFIEWLIKGKPKKIRYS (also called nmGLP-1 analog) [SEQ ID NO 30]
## Output 2.73

## Input GET /values?readout=log10 of IC50&item= HAEGTYTNDVTEYLEKAAKEFIEWLIKGKPKKIRYS (also called nmGLP-1 analog) [SEQ ID NO 29]
## Output 1.96
